- assay remarks: ovarian cancer cell viability with rucaparib, profiling panel, oncology-focused library, rucaparib conditional (AID 1508598)
- stated conditions: patient-derived ovarian cancer cells, CellTiter-Glo viability, 144 h; at 0.0195 µM; OCI-C5x cells; with rucaparib 10 µM; stronger effect = lower value; 100% = cells with rucaparib alone
measurement name: viability (%)

> print(dat)
                                    molecule  recorded.measurement
 1     O=c1cc(N2CCOCC2)oc2c(-c3ccccc3)cccc12                   102
 2  Cn1cc(C2=C(c3ccc(Cl)cc3Cl)C(=O)NC2=O)c2ccccc21                   125
 3  O=C(c1ccc(OCCN2CCCCC2)cc1)c1c(-c2ccc(O)cc2)sc2cc(O)ccc12                   113
 4  CC(C)c1onc(-c2c(Cl)cccc2Cl)c1COc1ccc(/C=C/c2cccc(C(=O)O)c2)c(Cl)c1                   101
 5  C[C@H](NC(=O)Cc1cc(F)cc(F)c1)C(=O)N[C@H](C(=O)OC(C)(C)C)c1ccccc1                   103
 6  O=C(O)Cc1cccc(OCCCN(Cc2cccc(C(F)(F)F)c2Cl)CC(c2ccccc2)c2ccccc2)c1                   113
 7  CC(NC(=O)c1ccccc1N=Cc1c(O)ccc2ccccc12)c1ccccc1 (stereo not given)                   121
 8              Cc1ccc(S(=O)(=O)/C=C/C#N)cc1                   115
 9  Nc1nc(Cl)nc2c1ncn2[C@H]1C[C@H](O)[C@@H](CO)O1                   111
10  Nc1nc(F)nc2c1ncn2[C@@H]1O[C@H](COP(=O)(O)O)[C@@H](O)[C@@H]1O                    97

---

- assay remarks: antimalarial activity against Dd2 strain (AID 2302);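 note: 0% = DMSO untreated growth and 100% = chloroquine plus artemisinin killed control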
- stated conditions: P. falciparum Dd2 in RBCs, LDH growth readout, 72 h; at 2 µM; stronger effect = higher value
measurement name: growth inhibition (%)

> print(dat)
                                  mol.smiles  value.unit  recorded.measurement
 1  CN1CCN(Cc2cccc(Nc3nccc(Nc4ccc(Oc5ccccc5)cc4)n3)c2)CC1           %                    80
 2     Cn1c(-c2ccccc2)cc2c3c(N)nc(N)nc3ccc21           %                    30
 3                Nc1nccc2ccc(OC3CCCCC3)cc12           %                    41
 4  Cc1ccc(Nc2nc3cc(Nc4ccnc(Nc5cccc(CS(C)(=O)=O)c5)n4)ccc3o2)cc1           %                    81
 5  CC1CCN(Cc2cccc(C(=O)NCc3ccc(F)c(-c4cccc(CN5CCN[C@@H](C)C5)c4)c3)c2)CC1           %                    64
 6              Cc1ccccc1OCCCc1c(C)nc(N)nc1N           %                     1
 7              Clc1ccccc1C=NNc1ccnc2ccccc12           %                    50
 8  COc1c(C2CCN(CCCCNC(=O)c3cc(-c4ccc(C#N)cc4)n[nH]3)CC2)ccc2c1CCCC2           %                    15
 9  c1ccc2[nH]c(-c3ccc(-c4ccc(CN5CCN(CCN6CCOCC6)CC5)cc4)s3)nc2c1           %                   100
10  Cc1[nH]c(C)c(-c2ccc(OCc3ccc(F)cc3)nc2)c(=O)c1Br           %                    97

---

Listing of recorded red/green cell ratio (normalised) by entry.
- assay remarks: differential killing of epithelial or mesenchymal cells, primary screen, imaging, PC-3E GFP, TEM4-18 mCherry, co-culture (AID 1345086);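 note: normalised mesenchymal count divided by normalised epithelial count so high means epithelial killing; cells exposed to compound for 72 h before imaging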
- stated conditions: imaging cell counts, at 1 µM, actives lie on both sides, counts scaled to control wells, 1 = unselective
measurement name: red/green cell ratio (normalised)

> print(dat)
                                   compound                   measurement.name  recorded.measurement
1        CC1OC1P(=O)(O)O (stereo not given)  red/green cell ratio (normalised)                  1.09
2  COc1ccc2c(c1)OCC(Cc1ccc(O)c(OC)c1)C2=O (stereo not given)  red/green cell ratio (normalised)                  0.93
3  O=C1N[C@@H]2[C@@H](Sc3ccccc3)OC(CO)C(O)[C@@H]2O1 (stereo not given in full)  red/green cell ratio (normalised)                  0.97
4  CC[C@@]1(O)C(=O)OCc2c1cc1n(c2=O)Cc2cc3cc(O)ccc3nc2-1  red/green cell ratio (normalised)                  0.94
5  C[C@@H]1CC2C3CCC4=CC(=O)C=C[C@]4(C)[C@@]3(F)[C@@H](O)C[C@]2(C)[C@@]1(O)C(=O)CO (stereo not given in full)  red/green cell ratio (normalised)                  1.24

---

- assay remarks: sensitizers of A549 cells to miR-34 induction, primary screen, imaging, A549 dox-inducible miR-34, nuclei and caspase counts (AID 1347080)
- stated conditions: A549 miR-34 inducible, Hoechst nuclei count, 48 h; measured here: relative caspase fold change +Dox/-Dox
Record T whenever fold change is at 2 or higher; record F when lower.

molecule	cat
CC(C)(C)NC(=O)[C@@H]1C[C@@H]2CCCC[C@@H]2CN1C[C@@H](O)[C@H](Cc1ccccc1)NC(=O)[C@H](CC(N)=O)NC(=O)c1ccc2ccccc2n1	F
CCCCC(=O)O[C@]1(C(=O)CO)CCC2C3CCC4=CC(=O)CC[C@]4(C)C3[C@@H](O)C[C@@]21C (some centres undefined)	T
CO[C@H]1/C=C/O[C@@]2(C)Oc3c(C)c(O)c4c(O)c(c(C=NN5CCN(C)CC5)c(O)c4c3C2=O)NC(=O)/C(C)=C\C=C\[C@H](C)[C@H](O)[C@@H](C)[C@@H](O)[C@@H](C)[C@H](OC(C)=O)[C@@H]1C	T
CCCC[C@@H](CC)COC(=O)c1ccccc1O	F
CC(=O)OC1CC2CCC1(C)C2(C)C (centres undefined)	F
COc1cc(C)c(/C=C/C(C)=C/C=C/C(C)=C/C(=O)O)c(C)c1C	T
c1ccc(-c2ccccn2)nc1	F
Cc1nnc(SCC2=C(C(=O)O)N3C(=O)C(NC(=O)Cn4cnnn4)C3SC2)s1 (centres undefined)	F
NCC1CCCCC1CC(=O)O (centres undefined)	T

---

- System: R275C
- assay remarks: modulators of BK channel variants, profiling panel, selectivity assay, cell-based, U2OS BacMam, thallium flux, beta subunits (AID 1259406);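 note: initial slope of Thallos dye fluorescence rise after thallium is added; log ratio against the mean of 0.3% DMSO vehicle wells on the same plate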
- stated conditions: at 30 µM
The source made the active and inactive calls.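 How the source made its calls: active means thallium flux through the channel raised or lowered by more than 3 SD from vehicle-only wells, actives on both sides; inactive means the rest.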
Outcomes: active, inactive

compound	cat
CCOC(=O)CSc1nnc(OCC)n1-c1ccccc1	inactive
CC(C)OC(=O)CCC/C=C\C[C@@H]1[C@@H](CC[C@@H](O)CCc2ccccc2)[C@H](O)C[C@@H]1O	inactive
CON=C(C(=O)N[C@@H]1C(=O)N2C(C(=O)O)=C(COC(N)=O)CS[C@H]12)c1ccco1	inactive
O=C(O)CC1(CC(=O)Nc2cccc3nsnc23)CCCCC1	inactive
CS(=O)(=NS(=O)(=O)c1ccc(OC(F)(F)F)cc1)c1ccccc1 (stereo not given)	inactive
O=c1[nH]nc(N2CCSCC2)[nH]1	inactive
CCCCN1CCCC1CNC(=O)c1cc(C#N)c2ccccc2c1OC (stereo not given)	inactive
COC(=O)Nc1nc2ccc(C(=O)c3ccc(F)cc3)cc2[nH]1	inactive
O=C1C(=Cc2cc(-c3ccccc3)c(C(F)(F)F)s2)CSc2ccc(Cl)cc21	inactive
Cc1ccc(S(=O)(=O)NC(=O)Nc2nc(-c3ccc(C)c(Cl)c3)c(C)s2)cc1	active
CN(C)C1C(=O)C(C(N)=O)=C(O)C2(O)C(=O)C3=C(O)c4c(O)ccc(Cl)c4C(O)C3CC12 (stereo not given)	inactive
CN1c2ccccc2C(C)(C)C12C=Cc1cc(Br)cc([N+](=O)[O-])c1O2 (stereo not given)	inactive
CC(C)(C)NC(=S)NNc1c(Cl)cncc1Cl	inactive
C[C@]12C=CC(=O)C=C1CC[C@@H]1[C@@H]2[C@@H](O)C[C@@]2(C)[C@H]1CC[C@]2(O)C(=O)COC(=O)CCC(=O)O	inactive
O=S1(=O)CC(N2CCOCC2)c2ccccc21 (stereo not given)	inactive
O=C(NC(=O)c1ccccc1Oc1ccc(Cl)cc1Cl)Nc1cc(Cl)cc(Cl)c1	inactive
O=C(O)C[C@H](O)C[C@H](O)/C=C/c1c(C2CC2)nc2ccccc2c1-c1ccc(F)cc1	inactive
CCCCC#Cc1ccc(C(=O)NNC(=O)Nc2ccccc2)o1	inactive
C=CCc1ccc(O)c(-c2ccc(O)c(CC=C)c2)c1	inactive
CC(C)c1ccc(NC(=S)NC2CC3CC2C2C=CCC32)cc1 (stereo not given)	active
CC12CCC(=O)C=C1CCC1C2CCC2(C)C1CCC2(O)C(=O)CO (stereo not given)	inactive
O=C(c1ccc(-c2cccs2)s1)c1ccc(F)cc1F	inactive
Cc1cc(C)c2cc(C(=O)Nc3ccccc3SCc3cccc(Cl)c3F)[nH]c2c1	inactive
COCCCNC1=C(C#N)C(=O)NC(c2cccs2)S1 (stereo not given)	inactive
CCC1=C[C@H]2CN(C1)Cc1c([nH]c3ccccc13)[C@@](C(=O)OC)(c1cc3c(cc1OC)N(C)[C@H]1[C@@](O)(C(=O)OC)[C@H](OC(C)=O)[C@]4(CC)C=CCN5CC[C@]31[C@@H]54)C2	active
CCN(CC)CC#CCOC(=O)C(O)(c1ccccc1)C1CCCCC1 (stereo not given)	active
Cc1nn(-c2ccccc2)nc1C(=O)NNC(=O)CSCc1cccc2ccccc12	inactive
Cc1cc(S(=O)(=O)c2ccc(Cl)cc2)sc1C(=O)NCC(O)c1ccccc1 (stereo not given)	inactive
CCOC(=O)CCC(=O)OC1C(OC2C(C)C(OC3CC(C)(OC)C(O)C(C)O3)C(C)C(=O)OC(CC)C(C)(O)C(O)C(C)C(=O)C(C)CC2(C)O)OC(C)CC1N(C)C (stereo not given)	active
CN1CCN(S(=O)(=O)c2ccc(CNC(=O)c3ccccc3)s2)CC1	inactive
CCN(CC)C(=O)[C@]1(c2ccccc2)C[C@@H]1CN	inactive
O=C(ON(C(=O)c1ccc(F)cc1)C1C2CC3CC(C2)CC1C3)c1ccc(F)cc1 (stereo not given)	inactive
O=C1CCC(=O)N1c1ccc(S(=O)(=O)NCCCN2CCN(Cc3ccccc3)CC2)cc1	inactive
CCCc1nc(C(C)(C)O)c(C(=O)O)n1Cc1ccc(-c2ccccc2-c2nn[nH]n2)cc1	inactive
O=c1n(-c2ccccc2)c(=O)n2n1C1CCC2C1	inactive
NC(=NOC(=O)Nc1cccc(Cl)c1)c1ccno1	inactive
O=C1CSC(=S)N1N=Cc1cccnc1	inactive
Nc1nc(Cl)nc2c1ncn2[C@H]1C[C@H](O)[C@@H](CO)O1	inactive
CCOC(=O)c1ccc(OCC#Cc2ccc(C(F)(F)F)cn2)cc1	inactive
CN(C)[C@@H]1C(=O)C(C(=O)NCN2CCCC2)=C(O)[C@@]2(O)C(=O)C3=C(O)c4c(O)cccc4[C@@](C)(O)C3CC12 (stereo not given in full)	inactive
